biological target: GST-Hu-p50 (Homo sapiens, UniProt P19838 7-356); test: protein-binding microarray (PBM); PBM: ~300 nM protein, 6 mM HEPES pH 7.8, 80 mM KCl, 0.5 mM EDTA, 0.5 mM EGTA, 6% glycerol, 35 ng/ul poly-dIdC, 1% milk, 1 h, room temperature; high values mean tight binding; settings: dsDNA, one strand shown
Sequence (P19838 7-356): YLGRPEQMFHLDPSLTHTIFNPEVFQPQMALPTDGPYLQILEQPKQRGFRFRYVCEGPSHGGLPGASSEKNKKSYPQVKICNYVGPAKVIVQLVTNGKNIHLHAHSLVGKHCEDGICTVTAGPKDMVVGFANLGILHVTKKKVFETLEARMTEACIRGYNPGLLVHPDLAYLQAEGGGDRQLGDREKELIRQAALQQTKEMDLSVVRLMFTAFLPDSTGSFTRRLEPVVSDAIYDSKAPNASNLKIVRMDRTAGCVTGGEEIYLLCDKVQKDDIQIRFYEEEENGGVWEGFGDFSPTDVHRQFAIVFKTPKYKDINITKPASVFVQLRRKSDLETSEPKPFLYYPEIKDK
binding signal vs 2 z-score: less than gives TRUE; not less than gives FALSE.

[
  {
    "Chain": "CCGATTAACATCACTGGGAAAACTGATGTTAATCGGGTCTTGATTCGCTTGACGCTGCTG",
    "Tested System": "GST-Hu-p50 (Homo sapiens, UniProt P19838 7-356)",
    "Assigned Class": "FALSE"
  },
  {
    "Chain": "CCGATTAACATCAGGCGATTCCCTGATGTTAATCGGGTCTTGATTCGCTTGACGCTGCTG",
    "Tested System": "GST-Hu-p50 (Homo sapiens, UniProt P19838 7-356)",
    "Assigned Class": "TRUE"
  },
  {
    "Chain": "CCGATTAACATCAATAAATTTCCTGATGTTAATCGGGTCTTGATTCGCTTGACGCTGCTG",
    "Tested System": "GST-Hu-p50 (Homo sapiens, UniProt P19838 7-356)",
    "Assigned Class": "TRUE"
  },
  {
    "Chain": "CCGATTAACATCACAGGGAATTCTGATGTTAATCGGGTCTTGATTCGCTTGACGCTGCTG",
    "Tested System": "GST-Hu-p50 (Homo sapiens, UniProt P19838 7-356)",
    "Assigned Class": "FALSE"
  }
]

====

Target: GST-Nv-NF-kB (Ser allele) (Nematostella vectensis, UniProt A7UNT2 2-411)
Sequence: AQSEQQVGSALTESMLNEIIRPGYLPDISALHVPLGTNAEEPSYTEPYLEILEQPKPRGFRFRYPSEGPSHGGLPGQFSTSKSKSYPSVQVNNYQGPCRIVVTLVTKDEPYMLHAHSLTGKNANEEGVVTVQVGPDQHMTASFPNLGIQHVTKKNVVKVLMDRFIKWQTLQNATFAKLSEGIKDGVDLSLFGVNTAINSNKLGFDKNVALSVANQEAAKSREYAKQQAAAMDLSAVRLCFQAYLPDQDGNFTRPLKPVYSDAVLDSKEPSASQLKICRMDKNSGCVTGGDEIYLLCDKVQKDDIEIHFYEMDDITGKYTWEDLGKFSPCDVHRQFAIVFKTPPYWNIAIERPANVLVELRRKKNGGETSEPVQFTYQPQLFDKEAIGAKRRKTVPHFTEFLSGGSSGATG
Assay: protein-binding microarray (PBM); PBM: ~300 nM protein, 6 mM HEPES pH 7.8, 80 mM KCl, 0.5 mM EDTA, 0.5 mM EGTA, 6% glycerol, 35 ng/ul poly-dIdC, 1% milk, 1 h, room temperature; Ap Aiptasia and Nv Nematostella (sea anemones) / Co Capsaspora / Aq Amphimedon (sponge) / Dm Drosophila / Hu human; RHD is the Rel homology domain; high values mean tight binding
Details: dsDNA, one strand shown

[
  {
    "Chain": "CCGATTAACATCAATGTCCCCCCTGATGTTAATCGGGTCTTGATTCGCTTGACGCTGCTG",
    "binding signal [z-score]": 4.42
  },
  {
    "Chain": "CCGATTAACATCAGGGTATTCCATGATGTTAATCGGGTCTTGATTCGCTTGACGCTGCTG",
    "binding signal [z-score]": 4.16
  },
  {
    "Chain": "CCGATTAACATCAGGGCACCCCCTGATGTTAATCGGGTCTTGATTCGCTTGACGCTGCTG",
    "binding signal [z-score]": 3.83
  }
]
